tested on: MCF7 breast; assay: NCI-60 one-dose screen, 48 h (100 = growth as untreated, 0 = no growth, -100 = all killed); conditions: 10 µM
The panel holds about 83,000 compounds, 20% with a hit somewhere; the sample as a whole holds those more often.
Provide the reported growth of each item.
Answers are plain numbers, in %.

Could you report growth for every entry in the following list?
1. COc1cccc2cc(N(C)c3nc(C)nc4ccsc34)ccc12
2. COc1ccc(-c2nnc(COc3ccc(C(=O)/C=C/c4ccco4)cc3)o2)cc1
3. COc1ccccc1CNC(=O)C1c2ccccc2C(=O)N(CC(C)C)C1c1cccs1 (stereo unspecified)

Result:
16.9
19.6
66.4

Would you mind giving growth for every compound in the list below?
1. O=c1oc2ccc(F)cc2c(=O)n1-c1ccc(I)cc1F
2. CCCCCCCCCCOC(=O)c1ccccc1C(=O)OCCCC
3. Cc1cccc2c(=O)c3c(sc12)c(NCCN)nc1ccccc13
4. O=C(Nc1ccc(F)c(Cl)c1)Nc1ccc(Cl)c(Cl)c1
5. COc1ccc(S(=O)(=O)N(Cc2ccc3c(n2)C=CC(C)(C)O3)C2CCC2)cc1OC
6. COc1ccc(CCN2C(=O)CCSC2=S)cc1OC

Result:
[1.73, 102, -82.1, 55.1, 2.14, 28]

Need growth for each of these compounds.
1. COC(=O)C1(C)CCC[C@]2(C)[C@H]3C[C@H]4C(C(C)C)=C[C@]3(CC[C@@H]12)[C@H]1[C@@H]4[C@@H](OCC#CCN2CCOCC2)CC[C@@H]1OCC#CCN1CCOCC1 (stereo partly specified)
2. COc1ccc(OC)c(N(CCN2C(=O)c3ccccc3C2=O)C(=O)CCl)c1

Result:
1: 77.3; 2: 78.8

List the reported growth of each compound below.
1. O=C(Nc1ccc(Br)cc1F)c1cc(F)ccc1O
2. O=C1/C(=C/c2cccc(O)c2)COc2ccc(O)cc21
3. Oc1[nH]c2ccccc2c1N=Nc1nnc2n1N=C(c1ccccc1)CS2

Result:
[3.43, 14, 71.9]

----------
system: MDA-MB-435 melanoma; experiment: NCI-60 one-dose screen, 48 h (100 = growth as untreated, 0 = no growth, -100 = all killed); conditions: 10 µM unless noted
This is part of a sample that, as a whole, favours compounds with a hit. Of some 83,000 tested, about 20% had one in any assay. Calls of active or inactive are those of the source. Rule for the calls: active = growth percent below 10; inactive = the rest.
parameter: growth

Please review the entries below; each comes with its answer.
COc1ccc(OC)c(/C=C/C(=O)c2c(C)nc3ccccc3c2/C=C/c2ccccc2)c1 | 46.4% (inactive)
O=C(Nc1ccc(N2CCNCC2)cc1)c1[nH]ncc1Nc1ncnc2sc3c(c12)CCC3 | -94.4% (active)
CC[C@H](C)[C@@H](C(=O)OC)n1cc(CNC(=O)[C@@H](Cc2ccccc2)NC(=O)OCc2ccccc2)nn1 | 99.9% (inactive)
COc1ccc(C2c3ccc4ccccc4c3Oc3ncn(CCCn4ccnc4)c(=N)c32)cc1OC (centres undefined) | 64.5% (inactive)
O=C(NCc1ccccc1)C1CN(c2ccc(Cl)cc2)N(c2ccc(Cl)cc2)C1=O (centres undefined) | 3.28% (active)

Return reported growth values for all items listed beneath this line.
1. COc1cc(NC(=O)CCSc2nc3ccccc3c(=O)n2CCc2ccccn2)cc(OC)c1OC
2. NCCOc1ncccc1/C=C1\c2ccccc2-c2ccc([N+](=O)[O-])cc21
3. NCCNc1nc2ccccc2c2c(=O)c3cc(F)cc(Cl)c3sc12
4. NC(=O)CSc1nc(-c2ccc(F)cc2)cc(-c2ccco2)n1

Result:
101% (inactive)
-70.5% (active)
-95.2% (active)
104% (inactive)

Where these numbers come from: PubChem BioAssay (NCI)
